For reference, IC50 measured on Tyrosine-protein kinase BTK (Homo sapiens):

Here are 4 compounds together with their reported answers.
1) CC#CC(=O)N1CCC[C@@H](n2nc(-c3ccc(C(=O)Nc4ccccn4)cc3)c3cnccc32)C1 = 100 to 1000 nM
2) C=CC(=O)N1CC[C@@H](n2nc(-c3ccc(Oc4cccc(OC)c4C)cc3)c3cnccc32)C1 = 10 to 100 nM
3) C=CC(=O)N1CC[C@H](n2nc3ccncc3c2-c2ccc(Oc3cccc(Cl)c3Cl)cc2)C1 = ≤ 10 nM
4) C=CC(=O)N1CCC[C@@H](n2nc(-c3ccc(Oc4cccc(OC)c4F)cc3)c3cncc(OC)c32)C1 = 100 to 1000 nM

Dear colleague, I am looking for the recorded IC50 of the following compound: C=CC(=O)N1CCC[C@@H](n2nc(-c3ccc(Oc4cccc(Cl)c4)cc3)c3cnccc32)C1 10 to 100 nM

Entry C=CC(=O)N1CC[C@@H](n2nc(-c3ccc(Oc4cccc(OC)c4F)cc3)c3c2CCN(C(C)=O)C3)C1 please 1000 to 10000 nM

Quick one: O=C(Nc1ccc(-c2nn(C3CCC(C(=O)O)CC3)c3ccncc23)cc1)c1ccccc1 (configuration not stated) ≥ 10000 nM

The reported measurements were obtained from ChEMBL document CHEMBL4190358.
